B1: Guanyl-specific ribonuclease Sa, P05798 (parent)
chain: DVSGTVCLSALPPEATDTLNLIASDGPFPYSQDGVVFQNRESVLPTQSYGYYHEYTVITPGARTRGTRRIITGEATQEDYYTGDHYATFSLIDQTC

Variants of: B1
Details: Kitasatospora aureofaciens; pH 7; Thermal; DSC; PIPES 0.03 M; reversible: yes (90-95%); structure 1RGG; whole UniProt chain shown
Answer each item with its documented unfolding enthalpy (calorimetric).
One number for each entry, in kcal/mol.

The examples below pair each entry with its known result.
INSERT INTO measurements (mutation_id, readout_value) VALUES
  ('Q38A', 109),
  ('H85Q', 90),
  ('E41K', 90),
  ('R65A', 81);

We next turn to a different variant, shown below.
Any idea what unfolding enthalpy (calorimetric) was measured for "E54Q" ?
81
